ASSAY_EXPLANATION: Detection of the absorption peak of the fluorescent dyes (UV-visible spectrophotometer, after standing at different temperatures)
Format: physicochemical
STATED_CONDITIONS: after standing at 0° C. for 48 hours, methanol/ethylene glycol (50:50 vol/vol), light-proof
MEASUREMENT_TYPE: Maximum absorption peak of the compounds disclosed (nm)

| SMILES_TEXT | NUMERIC_VALUE |
| --- | --- |
| CCN1C=C/C(=C\C=C\c2sc3ccccc3[n+]2CCOC(C)=O)c2ccc(Cl)cc21 | 639 |
| CC[n+]1c(/C=C/C=C2\C=CN(CCO)c3ccccc32)sc2ccc(Br)cc21 | 640 |
| CCN1C=C/C(=C\C=C\c2sc3ccccc3[n+]2CCO)c2ccc(Cl)cc21 | 639 |
| OCCN1C=C/C(=C\C=C\c2sc3ccccc3[n+]2CCO)c2ccc(Br)cc21 | 638 |
| OCCN1C=C/C(=C\C=C\c2sc3ccc(Cl)cc3[n+]2CCO)c2ccccc21 | 638 |

Cited source: patent US7709653B2
